- System: CCRIS mutagenicity, Ames/micronucleus/aberration tests
- assay notes: CCRIS mutagenicity studies
- stated conditions: Test System: AMES SALMONELLA TYPHIMURIUM; Strain/Indicator: TA1537; Metabolic Activation: NONE; Method: PREINCUBATION
- From the text: The CCRIS database contains chemical records with carcinogenicity, mutagenicity, tumor promotion, and tumor inhibition test results. It was developed by the National Cancer Institute (NCI). Data are derived from studies cited in primary journals, current awareness tools, NCI reports, and other sources. Test results have been reviewed by experts in carcinogenesis and mutagenesis. CCRIS provides historical information from the years 1985 - 2011. It is no longer updated. […]
Active and inactive are the calls of the source. The rule behind the calls is not given here.
readout label: mutagenic call

# molecule, observed result
records = [
    ("C=C(C)C(=O)OCC(Br)CBr (configuration not stated)", "inactive; negative"),
    ("COC(=O)Nc1nc2ccccc2[nH]1", "inactive; negative"),
    ("CC=O", "inactive; negative"),
    ("CC(C)CCCCCCCOC(=O)c1ccccc1C(=O)OCCCCCCCC(C)C", "inactive; negative"),
    ("Nc1ccc(Oc2ccc(N)cc2)cc1", "inactive; negative"),
    ("CNC(=O)C[C@@H](N)C(=O)N[C@@H](C(=O)N[C@@H]1C(=O)N2[C@@H]1SC(C)(C)[C@@H]2C(=O)O)c1ccc(O)cc1", "inactive; negative"),
]

Proceed to the following item.
Request: Request the reported mutagenic call associated with `CC(=O)/C=C/c1ccc2c(c1)OCO2`
Response: inactive; negative

###

- Tested on: CCRIS mutagenicity, Ames/micronucleus/aberration tests
- assay notes: CCRIS mutagenicity studies
- stated conditions: Test System: AMES SALMONELLA TYPHIMURIUM; Strain/Indicator: TA1537; Metabolic Activation: NONE; Method: FLUCTUATION (MICROTITER)
Active and inactive are the calls of the source. How the calls were made is not given here.
readout label: mutagenic call

# molecule, mutagenic call
measured = [
    ("CCC1CO1 (configuration not stated)", "inactive; negative"),
    ("CC(C)CON=O", "inactive; negative"),
    ("CS(C)=O", "inactive; negative"),
    ("Nc1ccc(Oc2ccc(N)cc2)cc1", "inactive; negative"),
    ("O=c1c(O)c(-c2ccc(O)c(O)c2)oc2cc(O)cc(O)c12", "active; positive"),
    ("CC(C)(OO)c1ccccc1", "active; positive"),
]

Proceed to the following item.
Request: Request the reported mutagenic call associated with `Nc1ncn([C@@H]2O[C@H](CO)[C@@H](O)[C@H]2O)c(=O)n1`
Response: inactive; negative

###

- System: CCRIS mutagenicity, Ames/micronucleus/aberration tests
- assay notes: CCRIS mutagenicity studies
- stated conditions: Test System: AMES SALMONELLA TYPHIMURIUM; Strain/Indicator: TA104; Metabolic Activation: NONE; Method: STANDARD PLATE
The source made the active and inactive calls. No rule for the calls is given here.
Bench note: report the call from active, inactive

# compound, class
measured = [
    ("COc1cccc2c1C(=O)c1c(O)c3c(c(O)c1C2=O)C[C@@](O)(C(=O)CO)C[C@@H]3O[C@H]1C[C@H](N)[C@@H](O)[C@H](C)O1", "inactive"),
]

Request: Which outcome was entered for the compound `[O-][N+](=Nc1ccc(Cl)c(Cl)c1)c1ccc(Cl)c(Cl)c1` in this test?
Response: inactive
